- Tested on: Bacteria: Escherichia coli, Staphylococcus aureus, Pseudomonas aeruginosa, Pseudomonas putida, Burkholderia cepacia, Alcaligenes faecalis
- METHOD: Preservation test with periodic inoculation, bacteria assessment
- Type: cell-based
- ASSAY SETUP: Polymer P2; sample stored 60 d at 40° C.
- Protocol: Microbiological results at the start (freshly formulated, i.e. 4-week test series is started immediately) and after 60 days of storage at 40° C. (i.e. the 4-week microbial testing is started with the sample stored at 40° C. for 60 days) […]
MEASURE: 60 d 40° C., bact. assess., 4th inoculation

COMPOUND	RESULT
CCCCCCCCn1sc(Cl)c(Cl)c1=O	+
CCCCNC(=O)OCC#CI [Iodopropynyl butyl carbamate, iodopropynyl butyl carbamate]	+
Cn1sc(Cl)cc1=O	+
